The reported numbers originate from paper PMC4674087.

# MEASUREMENT_PROTOCOL: Microsomal stability, mouse liver microsomes
# Type: in vitro ADME
MEASURE: microsomal CLint

* Cc1c(Cl)cccc1NC(=O)c1cc(-c2ccc(F)c(O)c2)on1 | > 462 µL/min/mg

* * *

Examples of molecules with documented CC50 at 24 h follow.
# MEASUREMENT_PROTOCOL: HeLa cell viability assay
# Assay type: cell-based, human
# PARTICULARS: human, HeLa cells, with verapamil (20 µM) or CsH (2 µg/mL)
MEASURE: CC50 at 24 h

• COc1ccc(-c2cc(C(=O)Nc3cc(Cl)cnc3C)no2)cc1O = > 50 µM
• Cc1c(Cl)cccc1NC(=O)c1cc(-c2ccc(F)c(O)c2)on1 = 39.5 µM
• COc1ccc(-c2cc(C(=O)Nc3cc(Cl)ccc3C)no2)cc1O = > 50 µM
